Test system: K4 kissing-loop RNA reporter;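 note: bound reporter read as fluorescence of individual clusters on recovered sequencing chips by microscopy, with normalized cluster intensities fitted with a binding model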
protocol-description: apparent KD of K4 kissing-loop reporter; higher = weaker reporter binding
recorded-conditions: Eterna round: R107; input ligand: none
// reported apparent KD of K4 kissing-loop reporter for each item listed
State the answer as a number, implicitly in nM.

>>> print(df.to_string())
                              sequence_code                 target_entity  units_symbol  quantitative_readout
0  UGUGAUGUGUAGUGUUAUGUUUUGCGGGAUACCAGAGUCUUUUUAUUCCCUUGGCAGCUUGAGUGAUGUUUGAUGCUGUUCUUGU [cxxdmullin]  K4 kissing-loop RNA reporter            nM                   439
1  CGCAGUGAUGUUGCUAUAUUUCUUGAUUAACGAGGACCGGUACGGCCGCCACUCGAUUUCUCUCUAAUCCACUAUGUUGUUUAGA [JR_SSTryptoA_Sub002]  K4 kissing-loop RNA reporter            nM                   506
2  UUAGAGAUCUCAGGAUAUCAGUGAUGUUGAGAUUCAGAUCUGAGAUAGAAUUCUAUCUCAGAUCAAUGAGAAGGGAGAUCUCAUU [AK4.4 Exc FMN B]  K4 kissing-loop RNA reporter            nM                   649
3  UGGUUUAACUGAAGGAGCGGCAAUUGAUAAGUAGAUAUAGUGAUGUUAUAUAAGAUAGAGAGCCAGGUAGGUCGCAGAGGUGUUU [ExArgB.Q]  K4 kissing-loop RNA reporter            nM                   232
4  GCAGUGAUGUUGCACGAGUAGGCUGGAGUACGAGGACCGGUACGGCCGCCACUCGUACGGAAGUCGCUAAUUUAUGGAAUGGUGA [#06 K4 Tryptophan A Same State]  K4 kissing-loop RNA reporter            nM                   341

Name the recorded apparent KD of K4 kissing-loop reporter for CGCAGUGAUGUUGCGAGUUUGAUCAGGGAAGGAGCGGCUCAGAAGCCAGGUAGGUCGCCCACGCAGUGAUGUUGUGUAUUCGGGU [Exclusion Arginine A GF 1] .
87.9

====

// reported apparent KD of MS2 coat protein for each item listed
System: MS2 coat protein
protocol-description: apparent KD of MS2 coat protein; higher = weaker reporter binding
recorded-conditions: Eterna round: R107; input ligand: theophylline 20 uM

Example sequences with recorded apparent KD of MS2 coat protein:
sequence-code	result
GGCGUCGGGCGAAGGAGCGUGAAGACAUGAGGAUCACCCAUGUAGAGGCCCGGACAGGGUUCGCAGGUAGGUCGCGCGCGGUGCC [#1 Same State - Arginine B Attempt #7 (HarryS)]	23.2 nM
AGCAUUGUAACAGAUACCAGACUUUUAAUGCCUCUAAUAACAUGAGGAUCACCCAUGUAUGUCCCUUGGCAGCUGUUAUGAUGCA [JR_ExcTheophyB_Sub008]	171 nM
AAUUAUCACGGAAGGAGCGUCAUGAAAUUGAUACAUGAGGAUCACCCAUGUGAGUGUUAGAGACAGGUAGGUCGCCGAUUAUUGA [JR_AAArginiB_Sub028]	43.1 nM

Name the recorded apparent KD of MS2 coat protein for UUAGAUAUGACGGAUACCAGCGUGUUGUAGAACAUGAGGAUCACCCAUGUAGUGAUCGAGCGCCCUUGGCAGCUGGUAUGUUUGG [7.T] .
203 nM

Name the recorded apparent KD of MS2 coat protein for AAACAUUGCUCAGAUACCAGACAUGAGGAUCACCCAUGUACCGAGGUACCCGAAAGGAAUGUCCCUUGGCAGCUGAGCAAUGAAA [MAT - Exclusion Theophlline B - Mod of Eli - D22] .
15.3 nM

Name the recorded apparent KD of MS2 coat protein for GGCUGCGAUGGCGGAAAUUAUUUACAUAGGCGAGGACCGGUACGGCCGCCACUCGAACGUACAUGAGGAUCACCCAUGUGAUAAU [theeternabot_sameState_MS2_Trp_A_1] .
59.9 nM

Name the recorded apparent KD of MS2 coat protein for UUCUUUAAGUCGGCCGCCACUGAAACAUGAGGAUCACCCAUGUAUAUUUGUGUAUAGGUGGAUUACAGGACCGGGACUAUAGUAA [JR_ExcTryptoB_Sub023] .
20.2 nM

Name the recorded apparent KD of MS2 coat protein for ACAUGAGGAUCACCCAUGUUGCUGACAGAAGGAGCGUGAUUAAGCACAGGUAGGUCGCUGUUGGUAUCGAGCGUUAGCUCGAUAC [SSArg A #8] .
41.7 nM

Name the recorded apparent KD of MS2 coat protein for CGGUUUGUGAUGGAUACCAGCAGAGUGACUGUUUAUCCUGACAUGAGGAUCACCCAUGUGUGCCCUUGGCAGCUGUUGUGGGCUG [8.aA] .
111 nM

Name the recorded apparent KD of MS2 coat protein for GGAUAGGACAGAAGGAGCGACAUGGCGACGAAAGUCGGACCUUCACAUGAGGAUCACCCAUGUCAGGUAGGUCGCUGUCCUAUCG [ArgXB 6 #MS2Gate #StaticStem] .
55.2 nM

Name the recorded apparent KD of MS2 coat protein for ACGAUAGGACCUGAGGAACACCCAGGUGAUACCAGCCUGGAAACAGGCCCUUGGCAGCACCAAUACUCCAAUAACCUAUCGAAUA [TheoAX 12 #MicroSwitchBubble #AlternativeMS2] .
521 nM

====

Tested on: MS2 coat protein
protocol-description: apparent KD of MS2 coat protein; designed switch direction (-1 OFF switch, 1 ON switch): 1; higher = weaker reporter binding
recorded-conditions: Eterna round: R95; input ligand: FMN 200 uM
Outcome: Criterion met for apparent KD of MS2 coat protein of at least 300 nM; Criterion not met for anything lower.

Record excerpt, results attached:
sequence-code	class-label
CUAUCUACAGGUGUCUUUGCUCGUCUUAUACAUGAGGAUCACCCAUGUUAUAGCCCGGUGCUUGCGCUGGGCUGAUU [JL ViennaUCT Tearor mod 6] (puzzle: Sensor for hsa-mir-208a)	Criterion not met
GGUCCGGCCUGAGCUGGACCGAAGCAUGUACAUGAGGAUCACCCAUGUCAUGUACAGGCUUUUUGCUCGUCUUAUUG [JL-shm-2.13 JL Mod] (puzzle: Sensor for hsa-mir-208a)	Criterion met
AGUAUACAUGAGGAUCACCCAUGUCAACGUAGUCGAGGAUAUGGGCAGCCGUGAGGCGUACCAGAAGGCGAAGAGA [Mat - Same State 1 - Mod of JL - D5] (puzzle: Same State 1)	Criterion not met
UGGAUCUAGGCUUGCCUGGGUCCAUGUUGACAUGAGGAUCACCCAUGUGUUUUUUUUUUGCUUUUUGUUUGUCAACA [JL A Humble Attempt mod 3] (puzzle: Sensor for hsa-mir-208a)	Criterion not met
GCGGAACAUGAGGAUCACCCAUGUGGAGGGUGUAAAGGAUAUUAUAGAGAGAAGGUAGGGUAAGAAGGUUGCUGGG [JR_SS1_Sub090] (puzzle: Same State 1)	Criterion met
UGUUAACAUGAGGAUCACCCAUGUCAAAUGAAUCGAGGAUAUGGAAAGUAAUAAGAUGAACUAGAAGGUGAAGUUG [Altered State 1-19 - Jieux - Same State 1] (puzzle: Same State 1)	Criterion not met

Let's switch to this sequence now.
Please indicate if the recorded apparent KD of MS2 coat protein for AGUCCAGCCUGAGCUGGACAAAAGUAUGUACAUGAGGAUCACCCAUGUCAUGUACAAGCUUUUUGCUCGUCUUAAAA [Zipper 46 - 14] (puzzle: Sensor for hsa-mir-208a) meets or exceeds 300 nM.
Criterion not met

====

Test system: MS2 coat protein
protocol-description: apparent KD of MS2 coat protein; designed switch direction (-1 OFF switch, 1 ON switch): 1; higher = weaker reporter binding
recorded-conditions: input ligand: FMN 200 uM
// reported apparent KD of MS2 coat protein for each item listed
State the answer as a number, implicitly in µM.

Example sequences with recorded apparent KD of MS2 coat protein:
sequence-code	apparent KD of MS2 coat protein (µM)
GGAAUAUGAUGUUACAUGAGGAUCACCCAUGUAGUGAUAACUAAGGAUAUCUGUUAAGAUAACUAAGAGAAGGUAGGAUCAUAA [AK SSNG3-V2-8.3] (Eterna round: R96, puzzle: Same State NG 3)	0.0497
UCGGGCGUACUUGCUGACAUGAGGAUCACCCAUGUAAAUGGGAAGGAUAUGGUUCCGUUUCGGUACCAGAAGGUCCUGGGUGCU [salish99_SSNG3_r04_310] (Eterna round: R96, puzzle: Same State NG 3)	0.459
UAAAUAAUGUAAGGAUAUACAUGAGGAAUUCUCGUAGAAGGUACAUGACAUGAGGAUCACCCAUGUAUCGCUCCGUAGAGCGUA [Mat - Same State NG 1 - JL mod - D26] (Eterna round: R96, puzzle: Same State NG 1)	0.288
ACCCGCGGGCCACAUGAGGAUCACCCAUGUGACCGGUGAUCCAAGGAUAUGUGUAGGGUAGAUGCACAGAAGGUGGCCAAAACU [Ainriqu] (Eterna round: R96, puzzle: Same State NG 3)	0.0266
GGAAUAUGAUGUUACAUGAGGAUCACCCAUGUAGUAAUAACUAAGGAUAUCUGAAAGGGAGGAGAAGAGAAGGUAGGAUCAUAA [AK SSNG3-V2-10.2] (Eterna round: R96, puzzle: Same State NG 3)	0.06
AGAUGUUAAUCAGGAUAUGGGCACAUGAGGAUCACCCAUGUAACGUAGAUACGAUGUGGUCAAGUCUAGAAGGGAUGGCUAACA [SameState NG2 #79] (Eterna round: R96, puzzle: Same State NG 2)	0.0499

Name the recorded apparent KD of MS2 coat protein for UUAAUAAAUCAAGGAUAUCACGUCGAAUAGACGUGAGAAGGUGAUCAUAACAUGAGGAUCACCCAUGUAUUACAUGAAUAUUAA [SSNG1/1-B1] (Eterna round: R96, puzzle: Same State NG 1) .
0.522

Name the recorded apparent KD of MS2 coat protein for GCCGCGUUUCGCGCCUACAUGAGGAUCACCCAUGUUUGUCGGCAGGAUAUCGUCCGCUCUGCGGGCGAGAAGGGCUAUUGUGGU [salish99_SSNG3_R04_027] (Eterna round: R96, puzzle: Same State NG 3) .
0.0288

Name the recorded apparent KD of MS2 coat protein for CCGUUCAAUAAACAUGAGGAUCACCCAUGUUAUAAUAUGGGUGAGGAUAUGCAUCUGAAACAGGUGCAGAAGGCAUAAGAGCGG [JL SSNG3 3.92] (Eterna round: R96, puzzle: Same State NG 3) .
0.214
